The entries below are paired with their reported combination Emax.
System: SN12C (Kidney Carcinoma)
Experiment: combination Emax (second highest fraction inhibited in the dose matrix, 72 h); higher = more inhibition; extreme values may be limits of the assay

Known results for compounds:
Suppose we examine the compound Cc1cc2ncnn2cc1Nc1ncc2c(n1)n(C1CCOCC1)c(=O)n2C [AZD7648] + C[C@@H]1COCCN1C2=NC(=NC(=C2)C3(CC3)[S@](=N)(=O)C)C4=C5C=CNC5=NC=C4 [AZD6738] (first compound max 10 µM, 7x7, partner max 10 µM) ; what combination Emax value has been reported?
0.313

Suppose we examine the compound COc1nnc2ccc(N3CCC(c4ccc(OCCN5CCN(C)C(=O)[C@H]5C)cc4)CC3)nn12 [AZD5153] + CC1(C)CCC(CN2CCN(c3ccc(C(=O)NS(=O)(=O)c4ccc(NCC5CCOCC5)c([N+](=O)[O-])c4)c(Oc4cnc5[nH]ccc5c4)c3)CC2)=C(c2ccc(Cl)cc2)C1 [Venetoclax] (first compound max 1 µM, 7x7, partner max 1 µM) ; what combination Emax value has been reported?
0.318

Suppose we examine the compound CCc1c2c(nc3ccc(O)cc13)-c1cc3c(c(=O)n1C2)COC(=O)[C@]3(O)CC [SN-38] + O=C(c1cc(Cc2n[nH]c(=O)c3ccccc23)ccc1F)N1CCN(C(=O)C2CC2)CC1 [Olaparib] (first compound max 0.3 µM, 7x7, partner max 10 µM) ; what combination Emax value has been reported?
0.738

Suppose we examine the compound C[C@@H](Oc1cc(-c2cnn(C3CCNCC3)c2)cnc1N)c1c(Cl)ccc(F)c1Cl [Crizotinib] + CC1=C(C(=CC=C1)Cl)NC(=O)C2=CN=C(S2)NC3=CC(=NC(=N3)C)N4CCN(CC4)CCO [Dasatinib] (first compound max 10 µM, 7x7, partner max 2 µM) ; what combination Emax value has been reported?
0.231

Suppose we examine the compound CN(CCO)CC[C@H](CSc1ccccc1)Nc1ccc(S(=O)(=O)NC(=O)c2ccc(N3CCC([C@@H](O)c4ccccc4-c4ccc(Cl)cc4)CC3)cc2)cc1S(=O)(=O)C(F)(F)F [AZD4320] + CN(C)CCCOc1ccc(-c2ccc3ncc4c(c3c2)n(C2CCOCC2)c(=O)n4C)cn1 [AZD0156] (first compound max 1 µM, 7x7, partner max 1 µM) ; what combination Emax value has been reported?
0.169

---
Suppose we examine the compound CC1(C)CCC(CN2CCN(c3ccc(C(=O)NS(=O)(=O)c4ccc(NCC5CCOCC5)c([N+](=O)[O-])c4)c(Oc4cnc5[nH]ccc5c4)c3)CC2)=C(c2ccc(Cl)cc2)C1 [Venetoclax] + C[C@@H]1COCCN1C2=NC(=NC(=C2)C3(CC3)[S@](=N)(=O)C)C4=C5C=CNC5=NC=C4 [AZD6738] (first compound max 1 µM, 7x7, partner max 10 µM) ; what combination Emax value has been reported?
0.287

Suppose we examine the compound Cc1c2c(nn1C)CSCc1cc(n(C)n1)CSc1cc(c3ccccc3c1)OCCCc1c(C(=O)O)n(C)c3c-2c(Cl)ccc13 [AZD5991] + CCN(CCO)CCCOc1ccc2c(Nc3cc(CC(=O)Nc4cccc(F)c4)[nH]n3)ncnc2c1 [AZD2811] (first compound max 1 µM, 7x7, partner max 1 µM) ; what combination Emax value has been reported?
0.387

Every entry's value here was drawn from the supplement of paper PMC11061612.
